biological target: tyrosyl-DNA phosphodiesterase 2 (hTDP2-CAT) (Homo sapiens, UniProt O95551, C273S); construct: catalytic domain, residues 113–362; assay: fluorescence-based […]'-phosphotyrosyl oligonucleotide enzyme assay
Sequence (O95551 113-362 C273S): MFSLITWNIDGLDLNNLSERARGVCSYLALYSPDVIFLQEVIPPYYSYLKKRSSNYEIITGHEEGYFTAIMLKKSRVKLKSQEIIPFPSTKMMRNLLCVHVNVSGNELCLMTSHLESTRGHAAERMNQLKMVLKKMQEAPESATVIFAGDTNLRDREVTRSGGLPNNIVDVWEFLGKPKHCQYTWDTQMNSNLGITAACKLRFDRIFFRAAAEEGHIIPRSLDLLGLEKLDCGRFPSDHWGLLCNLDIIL
Attribute measured: IC50

compound="N#Cc1ccc2cc3c(=O)[nH]c(=O)nc-3n(-c3cccc(CO)c3)c2c1 [compound 149, 149]" result="489 nM"
